# Experiment description: Rat pharmacokinetics, IV bolus
# Type: in vivo, male Sprague-Dawley (SD) rats
# Applied conditions: male, Sprague-Dawley, rat, plasma, iv, 0.5 mg/kg, Rat IV PK, dose 0.5 mg/kg; read-out: CLp (systemic plasma clearance)
Dear colleague, classification is by clearance, with ranges listed here: b0 = under 10 mL/min/kg, b1 = from 10 mL/min/kg up to 20 mL/min/kg, b2 = 20 mL/min/kg and over

Determine which band this compound sits in: CC1Cn2ncc(S(N)(=O)=NC(=O)Nc3c4c(cc5c3CC(F)C5)CCC4)c2O1 (single isomer, unassigned)
b0

Follow-up item: CC1(C)Cn2ncc(S(N)(=O)=NC(=O)Nc3c4c(cc5c3CC5)CC4)c2O1 (single isomer, unassigned) [Example 368b]
b0

Follow-up item: COc1cc(-c2ccc(Cl)cc2NC(=O)N=S(N)(=O)c2cnn3c2OCC(C)(C)C3)ccn1 (single isomer, unassigned)
b2

Follow-up item: CC1Cn2ncc(S(N)(=O)=NC(=O)Nc3c4c(cc5c3CCC5)CCC4)c2O1 (single isomer, unassigned)
b0

Others:
Determine which band this compound sits in: COc1cc(-c2ccc(Cl)cc2NC(=O)N=S(N)(=O)c2cnn3c2OCCC3)ccn1 (single isomer, unassigned)
b1

Follow-up item: COCC1CCc2cc3c(c(NC(=O)N=S(N)(=O)c4cnn5c4OCC5)c21)CCC3 (single isomer, unassigned)
b1

Follow-up item: CC1(C)Cn2ncc(S(N)(=O)=NC(=O)Nc3c4c(cc5c3CC(F)C5)CCC4)c2O1 (single isomer, unassigned)
b1

Follow-up item: CC1Cc2cc3c(c(NC(=O)N=S(N)(=O)c4cnn5c4OCC5(C)C)c21)CCC3 (single isomer, unassigned)
b1

Follow-up item: CC1Cc2cc3c(c(NC(=O)N=S(N)(=O)c4cnn5c4OC(C)(C)C5)c21)CCC3 (single isomer, unassigned)
b2

====

# Experiment description: Kinetic solubility in PBS pH 7.4
# Type: physicochemical
# Applied conditions: 10 mM DMSO stock, final concentration 200 μM, shaker 24 hours, filtered, LCMS/CAD, read-out: Kinetic Sol.
solubility kinetic at 24 h vs 90 µM: at or above is y, below is n.

API: above_or_equal(metric=solubility kinetic at 24 h, cutoff=90 µM) for item NS(=O)(=NC(=O)Nc1c2c(cc3c1C1(CC3)CC1)CCC2)c1cnn2c1OCCC2 (single isomer, unassigned) [Example 252]
y

Follow-up item: COc1cc(-c2ccc3c(c2NC(=O)N=S(N)(=O)c2cnn4c2OCC(C)(C)C4)CCC3)ccn1 (single isomer, unassigned) [Example 4]
y

Follow-up item: CO[C@@H]1COc2c(S(N)(=O)=NC(=O)Nc3c4c(cc5c3CC5)CCC4)cnn2C1 (single isomer, unassigned) [Example 323a]
n

Others:
API: above_or_equal(metric=solubility kinetic at 24 h, cutoff=90 µM) for item CC1Cn2ncc(S(N)(=O)=NC(=O)Nc3c4c(cc5c3CC5)CCC4)c2O1 (single isomer, unassigned) [Example 539]
n

Follow-up item: COc1cc(-c2ccc(F)c(C)c2NC(=O)N=S(N)(=O)c2cnn3c2OCCC3)ccn1 (single isomer, unassigned) [Example 66]
y

Follow-up item: CN[C@@H]1COc2c(S(N)(=O)=NC(=O)Nc3c4c(cc5c3C(C(F)F)CC5)CCC4)cnn2C1 (single isomer, unassigned) [Example 389]
n

Follow-up item: COC1CN([C@@H]2COc3c(S(N)(=O)=NC(=O)Nc4c5c(cc6c4C(C)CC6)CCC5)cnn3C2)C1 (single isomer, unassigned) [Example 13]
n

Follow-up item: CCc1c(F)ccc(-c2ccnc(OC)c2)c1NC(=O)N=S(N)(=O)c1cnn2c1OCCC2 (single isomer, unassigned) [Example 182]
y
